All figures here come from the supplement of paper PMC10567573.

B1: RIPK4 (parent)
chain: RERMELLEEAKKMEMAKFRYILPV

Variants of: B1
Test: protein stability index of a GFP-peptide fusion (GPS, HEK-293T) (PSI 1-6); higher = more stable;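 note: lentivirally expressed fusions sorted by FACS into six bins by GFP to DsRed ratio, PSI derived from sequencing read proportions per bin multiplied by bin number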
Conditions: c terminus: a fixed tail appended
# protein stability index values compiled below
Give the figure by itself; no unit, no explanation.

Guide cases for protein stability index, answers given:
E9S: 3.08
R1Q: 3.9
K12N: 3.23
P23N: 1.63
K11G: 3.04

Query :: Request the reported protein stability index associated with `K17L`
Result :: 2.04

Query :: Request the reported protein stability index associated with `E14A`
Result :: 2.78

Query :: Request the reported protein stability index associated with `L6I`
Result :: 3.98

Query :: Request the reported protein stability index associated with `E8P`
Result :: 3.14

Query :: Request the reported protein stability index associated with `P23S`
Result :: 3.96

Query :: Request the reported protein stability index associated with `L22W`
Result :: 2.53
